// IC50 lookup, one value per entry
Test system: human osteosarcoma (HOS cell lines)
Experiment: MTT cytotoxicity assay, HOS
Format: cell-based
Conditions: MTT, 0.78–100 µM, ± SD
reportedMetric: IC50 (µM)

1. O=c1cc(-c2ccccc2)c2ccc(O)cc2o1 [Compound 15, 7-hydroxy-4-phenyl-2H-chromen-2-one]
88.3
2. O=c1cc(-c2ccccc2)c2ccc(OCCCI)cc2o1 [Compound 16]
26.2

----------
System: human colorectal adenocarcinoma (Caco-2 cell lines)
Assay: MTT cytotoxicity assay, Caco-2
Type: cell-based
Conditions: Caco-2, 48 h
Labelling field: enter 1 if recorded cytotoxicity at 100 µM is less than 30%. Enter 0 if it equals or exceeds that cut-off.

1) Cn1c(COc2ccc3c(-c4ccccc4)cc(=O)oc3c2)nnc1SCCOCCO [Compound 11]
1
2) Cn1c(COc2ccc3c(-c4ccccc4)cc(=O)oc3c2)nnc1SCC(O)CO (centres unmarked) [Compound 13]
1
3) CCn1c(COc2ccc3c(-c4ccccc4)cc(=O)oc3c2)nnc1SCC(O)CO (centres unmarked) [Compound 14]
0
4) O=c1cc(-c2ccccc2)c2ccc(OCCCCI)cc2o1 [Compound 17]
0
5) CCn1c(COc2ccc3c(-c4ccccc4)cc(=O)oc3c2)nnc1S[C@@H]1O[C@H](COC(C)=O)[C@H](OC(C)=O)[C@H](OC(C)=O)[C@H]1OC(C)=O [Compound 5]
1

----------
System: human breast cancer (MCF-7 cell lines)
Assay: MTT cytotoxicity assay, MCF-7
Assay type: cell-based
Conditions: MCF7, MTT, 0.78–100 µM, ± SD
Experimental: The synthesized compounds were studied for their cytotoxic activity against several human cancer cell lines, namely human osteosarcoma (HOS cell lines), human breast adenocarcinoma (MDA-MB-231 cell lines), human breast cancer (MCF-7 cell lines), human colorectal adenocarcinoma (Caco-2 cell lines) and human colon cell line (HCT-116 cell lines) using MTT assay at 100 µM, and the results were outlined as shown in Table 1. […]
reportedMetric: IC50 (µM)

1) Cn1c(COc2ccc3c(-c4ccccc4)cc(=O)oc3c2)nnc1SC1OCC(O)C(O)C1O (stereo not drawn) [Compound 8]
52.2
2) CCn1c(COc2ccc3c(-c4ccccc4)cc(=O)oc3c2)nnc1SC1OCC(O)C(O)C1O (stereo not drawn) [Compound 10]
19.6
3) CC(=O)OC[C@H]1O[C@@H](OCc2cn(CCCOc3ccc4c(-c5ccccc5)cc(=O)oc4c3)nn2)[C@H](OC(C)=O)[C@@H](OC(C)=O)[C@H]1OC(C)=O [Compound 21]
38.9
